target: DYRK3 (human); details: compound 10.0 µM
measured attribute: per cent of control (%)
Quick note: give the figure in %, leave out the unit.

Entry "COC(=O)Nc1ccc(-c2nc(N3CCOCC3)c3cnn(C4CCN(C(=O)OC)CC4)c3n2)cc1" has what per cent of control? 77

Entry "CC(C)n1nc(-c2cc3cc(O)ccc3[nH]2)c2c(N)ncnc21" : reported per cent of control = ? 2

Name the reported per cent of control value associated with the compound "CCC(=O)N1CCN(c2ccc(-n3c(=O)ccc4cnc5ccc(-c6cnc7ccccc7c6)cc5c43)cc2C(F)(F)F)CC1" 52

Fill blank: measured per cent of control of the compound "COc1ccc(-c2ccc3c(N4CCOCC4)nc(N4C[C@@H](C)O[C@@H](C)C4)nc3n2)cc1CO" is ____. 84
